Every entry's value here was drawn from PubChem BioAssay (Tox21).

Molecular target: Androgen receptor (Homo sapiens) (UniProt P10275)
Sequence (P10275 whole entry, looked up): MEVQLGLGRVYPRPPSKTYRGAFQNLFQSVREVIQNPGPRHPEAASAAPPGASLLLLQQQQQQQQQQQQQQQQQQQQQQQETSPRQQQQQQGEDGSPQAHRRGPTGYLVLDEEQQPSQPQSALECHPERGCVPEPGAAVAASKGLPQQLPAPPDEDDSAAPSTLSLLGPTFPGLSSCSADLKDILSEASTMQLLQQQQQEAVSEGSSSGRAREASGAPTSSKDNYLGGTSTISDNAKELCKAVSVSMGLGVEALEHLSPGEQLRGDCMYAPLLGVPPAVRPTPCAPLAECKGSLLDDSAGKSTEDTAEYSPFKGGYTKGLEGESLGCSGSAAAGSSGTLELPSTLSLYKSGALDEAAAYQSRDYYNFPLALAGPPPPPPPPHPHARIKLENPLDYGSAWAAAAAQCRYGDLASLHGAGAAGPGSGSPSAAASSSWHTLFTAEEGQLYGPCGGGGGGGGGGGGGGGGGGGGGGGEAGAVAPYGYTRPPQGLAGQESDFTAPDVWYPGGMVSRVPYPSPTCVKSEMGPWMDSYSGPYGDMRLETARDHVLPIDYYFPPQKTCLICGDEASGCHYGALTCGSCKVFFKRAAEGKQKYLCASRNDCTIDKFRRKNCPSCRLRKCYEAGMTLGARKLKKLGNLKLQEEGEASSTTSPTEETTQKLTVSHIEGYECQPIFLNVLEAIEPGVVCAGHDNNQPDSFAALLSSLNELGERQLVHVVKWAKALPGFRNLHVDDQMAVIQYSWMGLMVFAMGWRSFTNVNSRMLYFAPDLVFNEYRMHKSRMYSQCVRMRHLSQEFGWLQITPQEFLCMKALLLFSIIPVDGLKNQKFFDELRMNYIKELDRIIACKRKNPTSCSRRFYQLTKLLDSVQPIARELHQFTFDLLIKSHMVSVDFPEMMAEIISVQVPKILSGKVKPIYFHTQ
Assay: qHTS assay to identify small molecule agonists of the androgen receptor (AR) signaling pathway (AID 743036); note: potency is the fitted concentration of half-maximal effect
Details: HEK293 AR-UAS-bla GripTite, beta-lactamase FRET ratio, 16 h; series mostly up to 62.4 µM
Records with an inconclusive call do not appear. Activity calls are given as the source filed them. Calls come from the whole dose curve; as a rule, active = well fitted activation curve with a large enough effect in the signal ratio in the repeat runs, with a control signal flat (not every such curve was filed as active); inconclusive = weak or mixed curves, or effect the other way; inactive = no such curve, though single readings can be large or run the other way; the % refers to the signal ratio.

# compound, Potency
records = [
    ("FC(Cl)(Cl)Cl", "12.3 µM (active)"),
    ("COc1ccc(/C(=C/C(=O)N2CCOCC2)c2ccc(Cl)cc2)cc1OC", "inactive"),
    ("CCOc1cc(C(C)(C)C)ccc1C1COC(c2c(F)cccc2F)=N1 (centres undefined)", "inactive"),
    ("CC[C@H]1C[C@@H]2C[C@H]3c4[nH]c5ccc(OC)cc5c4CCN(C2)[C@@H]13", "inactive"),
]
